Reference source for all entries: the array DNA melting data of Ke et al. (doi:10.1101/2024.01.08.574731)

# test: melting temperature; fluorescence melt of hairpins on a sequencing array, two-state fit, raised by 9.35 °C to match UV melts
# applied.conditions: sodium 0.088 M
measured.parameter: Tm (°C)

{"columns": ["sequence.input", "measured.parameter", "quantitative.readout"],
 "data": [
  ["GATCTAGTAGTAGATC ((((((....))))))", "Tm", 43.4],
  ["GGCAAAGAAATTTGCC ((((((....))))))", "Tm", 56],
  ["GCGCAGCGAAAGCTATGC ((..(((....)))..))", "Tm", 39.3],
  ["GGATGCGGAAACGTGTCC (((..((....))..)))", "Tm", 48.4],
  ["GCAGTGGGAAACCACCGC ((.((((....)))).))", "Tm", 48.8],
  ["GTTTAGCGAAAGCTTAAC (((.(((....))).)))", "Tm", 44.1],
  ["GACGTGGGAAACCGCGTC ((((.((....)).))))", "Tm", 61.5],
  ["GATCTATCTTAGATC ((((((...))))))", "Tm", 41.4],
  ["GGATGAGGAAACTCACCC ((.((((....)))).))", "Tm", 39.6],
  ["GGGGCTGGAAACGGTCCC (((.(.(....).).)))", "Tm", 49.6],
  ["CTGTAGAAATACAG (((((....)))))", "Tm", 39.4],
  ["GCGAGTCGTCGC ((((....))))", "Tm", 53.1],
  ["GTCCGCGAAAGCGAAGAC ((((((....)))..)))", "Tm", 45.4],
  ["GACTTGGGAAACTAGGTC (((.(.(....).).)))", "Tm", 25.4],
  ["GTTTTACGAAAGTAAAC (((.(((....))))))", "Tm", 38.7],
  ["GATCGAGACTCGATC ((((((...))))))", "Tm", 52.9],
  ["GATCTGTTACAGATC ((((((...))))))", "Tm", 50.5],
  ["GATCGATTAATCGATC ((((((....))))))", "Tm", 55.9],
  ["GATGGAGGAAACTCTGTC ((..(((....)))..))", "Tm", 29.1],
  ["GCCATGCGAAAGCACGGC (((.(((....))).)))", "Tm", 56.9],
  ["GTGACTGGAAACGGTTAC ((.((.(....).)).))", "Tm", 36.9],
  ["GATCGGTTGCCCGATC ((((((....))))))", "Tm", 57.2],
  ["CCCAAGAAATTGGG (((((....)))))", "Tm", 45.3],
  ["GTGATAGCGAAAGCTCAC (((..(((....))))))", "Tm", 44.9],
  ["GGTGTTGGAAACAACATC (.(((((....))))).)", "Tm", 48.2],
  ["GCATAACGAAAGTTGTGC (((.(((....))).)))", "Tm", 54.7],
  ["GGGTGGGAAACCACCC ((((((....))))))", "Tm", 68.2],
  ["GACGATGGAAACATCGTC (((((((....)))))))", "Tm", 67.9],
  ["GTCAAAACGAAAGTTGAC (((..(((....))))))", "Tm", 40.5],
  ["GGCTCAGGAAACTGGGTC (.(.(((....))).).)", "Tm", 38],
  ["GATTGACGAAAGTCTATC (((.(((....))).)))", "Tm", 46.1],
  ["GAACACCCGAAAGGGTTC (((..(((....))))))", "Tm", 30.7],
  ["GATCGAATACTCGATC ((((((....))))))", "Tm", 49.9],
  ["GCTTAGCGAAAGCTTTGC ((..(((....)))..))", "Tm", 44.3],
  ["GATCGATACCTCGATC ((((((....))))))", "Tm", 53.1],
  ["GTGCCACGAAAGTGACAC (((.(((....))).)))", "Tm", 56.5],
  ["GATCCCACGTGGGATC ((((((....))))))", "Tm", 60.3],
  ["GGGATGCCGAAAGGCCCC (((..(((....))))))", "Tm", 46.6],
  ["CGGTTCGGAAACGATCCG (((.(((....))).)))", "Tm", 51],
  ["GCTCGCGAAAGCGATAGC ((((((....)))..)))", "Tm", 50.3],
  ["GTCCGGAAACGGAC (((((....)))))", "Tm", 67.4],
  ["GATCTTTTAAAGATC ((((((...))))))", "Tm", 43.8],
  ["GGCTGCGAAAGCACCGCC ((((((....)))..)))", "Tm", 54.1],
  ["GCGACTCGTCGC ((((....))))", "Tm", 68.3],
  ["GGAGACGGAAACGCCTCC ((((.((....)).))))", "Tm", 51.4],
  ["GCGGACCCCCGC ((((....))))", "Tm", 53.3],
  ["GTTACCGAAAGGTTCAAC ((((((....)))..)))", "Tm", 25],
  ["GAACACCGAAAGGTATTC (((.(((....))).)))", "Tm", 37.8],
  ["GGAGGCGGAAACGCCCCC ((.((((....)))).))", "Tm", 56.4],
  ["GCAGGGCGAAAGCCTCGC ((..(((....)))..))", "Tm", 52],
  ["GACTACCGAAAGGTGGTC (((.(((....))).)))", "Tm", 58.4]
]}

----------
# test: folding enthalpy; higher = less favourable; fluorescence melt of hairpins on a sequencing array, two-state fit
# applied.conditions: sodium 0.088 M

{"columns": ["sequence.input", "scale.unit", "folding enthalpy"],
 "data": [
  ["GACGCAGAAATGCGTC ((((((....))))))", "kcal/mol", -35.9],
  ["GCAGACGAAAGTCATTGC ((((((....)))..)))", "kcal/mol", -16.5],
  ["GACGCCCCGAAAGGGGTC (((..(((....))))))", "kcal/mol", -7.73],
  ["GTGGGTGAAAACCCAC ((((((....))))))", "kcal/mol", -28.1],
  ["GTGATCGAAAGATGCAC ((((((....))).)))", "kcal/mol", -19.6],
  ["GTGCAGACGAAAGTCCAC (((..(((....))))))", "kcal/mol", -16.9],
  ["GATCGGTATACCGATC ((((((....))))))", "kcal/mol", -36.7],
  ["GATCGAACCTTCGATC ((((((....))))))", "kcal/mol", -40.7],
  ["GCTCGGGGAAACTCGGGC ((.((.(....).)).))", "kcal/mol", -26],
  ["GTCGATGGAAACGTCGAC (((((.(....).)))))", "kcal/mol", -37.6],
  ["GCTTGTGGAAACACAAAC (.(((((....))))).)", "kcal/mol", -13.8],
  ["GCGACCGAAAGGTATCGC ((((((....)))..)))", "kcal/mol", -27.7],
  ["GCTTGTCCGAAAGGAAGC (((..(((....))))))", "kcal/mol", -17.7],
  ["GACGGGGGAAACCTCGTC ((((.((....)).))))", "kcal/mol", -31.7],
  ["GACTGTGAAAACAGTC ((((((....))))))", "kcal/mol", -34.1],
  ["GACGCGGCGAAAGCCGTC (((..(((....))))))", "kcal/mol", -5.1],
  ["GATTAAGGAAACTTAATC (((((((....)))))))", "kcal/mol", -31.3],
  ["GGATACGGAAACGCATCC ((((.((....)).))))", "kcal/mol", -29.1],
  ["GATCCACAATGGATC ((((((...))))))", "kcal/mol", -30.7],
  ["GATCTTGTTTAAGATC ((((((....))))))", "kcal/mol", -32.1],
  ["GCCTAGCGAAAGCTAAGC ((.((((....)))).))", "kcal/mol", -17.1],
  ["GCGTGCGGAAACACACGC (((((.(....).)))))", "kcal/mol", -40.2],
  ["GCGCCGCGAAAGCTCCGC (((..((....))..)))", "kcal/mol", -16.8],
  ["GCCCCCGAAAGGGCAGGC ((((((....)))..)))", "kcal/mol", -17.9],
  ["GCGGACGAAAGTCATCGC ((((((....)))..)))", "kcal/mol", -25.7],
  ["GTCCAGGGAAACCCAGAC (((..((....))..)))", "kcal/mol", -17.4],
  ["GTGGTTACGAAAGTACAC (((..(((....))))))", "kcal/mol", -20.7],
  ["GTATTACGAAAGTATTAC (((.(((....))).)))", "kcal/mol", -28.4],
  ["GTTATGTCGAAAGACAAC (((..(((....))))))", "kcal/mol", -10.6],
  ["GCGCTAGGAAACTGGTGC ((.(.((....)).).))", "kcal/mol", -28.9],
  ["GCGGAACCCCGC ((((....))))", "kcal/mol", -21],
  ["GAACGCGAAAGCGAATTC ((((((....)))..)))", "kcal/mol", -10.7],
  ["GCGAGGCGAAAGCACCGC (((..((....))..)))", "kcal/mol", -22.8],
  ["GGTCTTCGAAAGAACACC (((.(((....))).)))", "kcal/mol", -26.6],
  ["GATCCATTCATGGATC ((((((....))))))", "kcal/mol", -43.5],
  ["GATCAGGATTCTGATC ((((((....))))))", "kcal/mol", -38.6],
  ["GTTGCCGAAAGGCAGAAC ((((((....)))..)))", "kcal/mol", -8.61],
  ["GCTAATGCGAAAGCAAGC (((..(((....))))))", "kcal/mol", -16.4],
  ["GGGCGATCGAAAGATCCC (((..(((....))))))", "kcal/mol", -17.1],
  ["GATCCGACGGCGGATC ((((((....))))))", "kcal/mol", -48],
  ["GTCTCCGGAAACGAAGAC ((((.((....)).))))", "kcal/mol", -25.9],
  ["GTACTTGGAAACAAGTAC (((((((....)))))))", "kcal/mol", -33.5],
  ["GCCAGCGAAAGCTTGGC ((((((....))).)))", "kcal/mol", -27.4],
  ["GGATAGGGAAACCTATTC (.(((((....))))).)", "kcal/mol", -29.4],
  ["GATCTTGAAGAAGATC ((((((....))))))", "kcal/mol", -25.9],
  ["GGTTAAGGAAACTTAGCC ((.((((....)))).))", "kcal/mol", -28],
  ["GCCGCCGAAAGGCCCGGC ((((((....)))..)))", "kcal/mol", -17.4],
  ["GATCAAAAGATTGATC ((((((....))))))", "kcal/mol", -20.6],
  ["GTACATGGAAACATGCAC ((.((((....)))).))", "kcal/mol", -22.7],
  ["GAGACGGGAAACTGTCTC (((((.(....).)))))", "kcal/mol", -41.1]
]}
